metric-name: logP (pH 2)
One number for each entry.

The cases that follow already have their logP (pH 2) on record.
>>> print(df.to_string())
                                   compound   val
0  N#Cc1cccc(C(=O)C(CCCl)n2cc(C#N)cn2)c1 (centres unmarked)  2.41
1  Clc1cccc(C2=NNCCC2n2cc(Cl)cn2)c1 (centres unmarked)  2.93

// each compound listed below needs its logP (pH 2)
1. N#Cc1cccc(C2=NNCCC2n2cc(C#N)cn2)c1 (centres unmarked)
2. N#Cc1cnn(C2CCNN=C2c2cccc(Cl)c2)c1 (centres unmarked)
3. N#Cc1cnn(C(CCCl)C(=O)c2cccc(Br)c2)c1 (centres unmarked)
4. O=C(c1cccc(Br)c1)C(Br)CCCl (centres unmarked)

Result ::
1: 1.83; 2: 2.40; 3: 3.13; 4: 4.02

// each compound listed below needs its logP (pH 2)
1. FC(F)(F)Oc1cccc(C2=NNCCC2n2cc(Cl)cn2)c1 (centres unmarked)
2. O=C(c1cccc(F)c1)C(CCCl)n1cc(Cl)cn1 (centres unmarked)
3. O=C1OCCC1C(=O)c1cccc(OC(F)(F)F)c1 (centres unmarked)

Result ::
[3.32, 3.31, 2.59]

// each compound listed below needs its logP (pH 2)
1. O=C(c1cccc(C(F)(F)F)c1)C(CCCl)n1cc(Cl)cn1 (centres unmarked)
2. N#Cc1cnn(C2CCNN=C2c2cccc(Br)c2)c1 (centres unmarked)
3. O=C(c1cccc(OC(F)(F)F)c1)C(CCCl)n1cc(Cl)cn1 (centres unmarked)
4. O=C(c1cccc(OC(F)(F)F)c1)C(Br)CCCl (centres unmarked)

Result ::
1. 3.84
2. 2.49
3. 3.99
4. 4.19

// each compound listed below needs its logP (pH 2)
1. N#Cc1cnn(C(CCCl)C(=O)c2cccc(Cl)c2)c1 (centres unmarked)
2. O=C(c1cccc(Br)c1)C(CCCl)n1cc(Cl)cn1 (centres unmarked)
3. FC(F)(F)c1cccc(C2=NNCCC2n2cc(Cl)cn2)c1 (centres unmarked)

Result ::
[3.06, 3.78, 3.09]

// each compound listed below needs its logP (pH 2)
1. O=C(CCCCl)c1cccc(OC(F)(F)F)c1
2. O=C1OCCC1C(=O)c1cccc(Br)c1 (centres unmarked)
3. O=C(c1cccc(Cl)c1)C(CCCl)n1cc(Cl)cn1 (centres unmarked)
4. O=C(c1cccc(F)c1)C(Br)CCCl (centres unmarked)
5. Fc1cccc(C2=NNCCC2n2cc(Cl)cn2)c1 (centres unmarked)
6. O=C(CCCCl)c1cccc(Br)c1
7. Clc1cnn(C2CCNN=C2c2cccc(Br)c2)c1 (centres unmarked)

Result ::
1: 3.71; 2: 2.22; 3: 3.68; 4: 3.47; 5: 2.59; 6: 3.50; 7: 3.03

###

Tested on: adult Musca domestica, strain: Reichswald (OP, SP, carbamate resistant)
Test: Test with flies (Musca domestica) (Example H)
Type: in vivo
Details: Concentration 100 μg fly; reading time not stated (1, 3, 5, 24 and 48 hours in method)
For each record, write down the corresponding % Activity/Kill.
Give bare numbers, in %.

The cases that follow already have their % Activity/Kill on record.
In [3]: df
Out[3]:
                                   compound      metric_name  val
0  O=C(Nc1ccc(Cl)cc1)N1CCC(n2cc(Cl)cn2)C(c2cccc(C(F)(F)F)c2)=N1 (stereo not drawn) [Example 2]  % Activity/Kill   95
1  O=C(Nc1ccc(OC(F)(F)F)cc1)N1CCC(n2cc(Cl)cn2)C(c2cccc(Cl)c2)=N1 (stereo not drawn) [Example 7]  % Activity/Kill   99
2  O=C(Nc1ccc(SC(F)(F)F)cc1)N1CCC(n2cc(Cl)cn2)C(c2cccc(C(F)(F)F)c2)=N1 (stereo not drawn) [Example 23]  % Activity/Kill   90
3  O=C(Nc1ccc(OC(F)(F)F)cc1)N1CCC(n2cc(Cl)cn2)C(c2cccc(C(F)(F)F)c2)=N1 (stereo not drawn) [Example 3]  % Activity/Kill   95
4  O=C(Nc1ccc(C(F)(F)F)cc1)N1CCC(n2cc(Cl)cn2)C(c2cccc(Cl)c2)=N1 (stereo not drawn) [Example 9]  % Activity/Kill   95

Query :: What % Activity/Kill appears in the records for this compound with adult Musca domestica, strain: Reichswald (OP, SP, carbamate resistant)? O=C(Nc1ccc(OC(F)(F)F)cc1)N1CCC(n2cc(Cl)cn2)C(c2cccc(F)c2)=N1 (stereo not drawn) [Example 6]
Result :: 99

###

For each record, write down the corresponding % Activity/Kill.
System: Lucilia cuprina larvae
Assay: Blowfly larvae test/development inhibition activity (Example I)
Format: in vivo
Conditions: Concentration 20 ppm; 100% = no flies hatched
Experimental: Blowfly Larvae Test/Development Inhibition Activity 20 mg of active substance are dissolved in 1 ml of dimethyl sulphoxide; lower concentrations are prepared by dilution with distilled water. About 20 Lucilia cuprina larvae are introduced into a test tube containing 1 cm^3 of horse meat and 0.5 ml of the test preparation of active compound. The efficacy of the active compound preparation is determined after 24 and 48 hours. […] After 2 more days, the test tubes are removed and the pupae are counted. […]
Numbers only, in %.

The cases that follow already have their % Activity/Kill on record.
>>> print(df.to_string())
                                   compound      metric_name  units_label  val
0  O=C(Nc1ccc(OC(F)(F)F)cc1)N1CCC(n2cc(Cl)cn2)C(c2cccc(Cl)c2)=N1 (stereo not shown) [Example 7]  % Activity/Kill            %  100
1  O=C(Nc1ccc(SC(F)(F)F)cc1)N1CCC(n2cc(Cl)cn2)C(c2cccc(C(F)(F)F)c2)=N1 (stereo not shown) [Example 23]  % Activity/Kill            %    0
2  O=C(Nc1ccc(OC(F)(F)F)cc1)N1CCC(n2cc(Cl)cn2)C(c2cccc(C(F)(F)F)c2)=N1 (stereo not shown) [Example 3]  % Activity/Kill            %  100

// each compound listed below needs its % Activity/Kill
1. O=C(Nc1ccc(Cl)cc1)N1CCC(n2cc(Cl)cn2)C(c2cccc(C(F)(F)F)c2)=N1 (stereo not shown) [Example 2]
2. O=C(Nc1ccc(Cl)cc1)N1CCC(n2cc(Cl)cn2)C(c2cccc(F)c2)=N1 (stereo not shown) [Example 5]
3. O=C(Nc1ccc(OC(F)(F)F)cc1)N1CCC(n2cc(Cl)cn2)C(c2cccc(F)c2)=N1 (stereo not shown) [Example 6]

Result ::
1: 100; 2: 0; 3: 0

Query :: Name the recorded % Activity/Kill for O=C(Nc1ccc(C(F)(F)F)cc1)N1CCC(n2cc(Cl)cn2)C(c2cccc(Cl)c2)=N1 (stereo not shown) [Example 9] .
Result :: 0

###

metric-name: logP (pH 2)/ m.p. [° C.] (logP part)

>>> print(df.to_string())
                                   compound       val
0  N#Cc1cnn(C2CCN(C(=O)Nc3ccc(Br)cc3)N=C2c2cccc(Cl)c2)c1 (stereo not drawn)      4.03
1  N#Cc1cnn(C2CCN(C(=O)Nc3ccc(Cl)cc3)N=C2c2cccc(Br)c2)c1 (stereo not drawn)  3.96/213
2  O=C(Nc1ccc(OC(F)(F)F)cc1)N1CCC(n2cc(Cl)cn2)C(c2cccc(Cl)c2)=N1 (stereo not drawn)  4.73/181

// each compound listed below needs its logP (pH 2)/ m.p. [° C.] (logP part)
1. O=C(Nc1ccc(Cl)cc1)N1CCC(n2cc(Cl)cn2)C(c2cccc(Cl)c2)=N1 (stereo not drawn)
2. N#Cc1cccc(C2=NN(C(=O)Nc3ccc(SC(F)(F)F)cc3)CCC2n2cc(C#N)cn2)c1 (stereo not drawn)
3. N#Cc1cnn(C2CCN(C(=O)Nc3ccc(SC(F)(F)F)cc3)N=C2c2cccc(Br)c2)c1 (stereo not drawn)
4. O=C(Nc1ccc(OC(F)(F)F)cc1)N1CCC(n2cc(Cl)cn2)C(c2cccc(C(F)(F)F)c2)=N1 (stereo not drawn)
5. N#Cc1cnn(C2CCN(C(=O)Nc3ccc(Cl)cc3)N=C2c2cccc(Cl)c2)c1 (stereo not drawn)
6. N#Cc1cnn(C2CCN(C(=O)Nc3ccc(SC(F)(F)F)cc3)N=C2c2cccc(Cl)c2)c1 (stereo not drawn)
7. O=C(Nc1ccc(C(F)(F)F)cc1)N1CCC(n2cc(Cl)cn2)C(c2cccc(F)c2)=N1 (stereo not drawn)
8. O=C(Nc1ccc(C(F)(F)F)cc1)N1CCC(n2cc(Cl)cn2)C(c2cccc(Br)c2)=N1 (stereo not drawn)

Result ::
["4.49/203", "3.94/242", "4.64/206", "4.83/192", "3.90/228", "4.53/194", "4.37/194", "4.77/196"]

Query :: Name the recorded logP (pH 2)/ m.p. [° C.] (logP part) for N#Cc1cnn(C2CCN(C(=O)Nc3ccc(OC(F)(F)F)cc3)N=C2c2cccc(Br)c2)c1 (stereo not drawn) .
Result :: 4.24/192
